Listed here: items and their measured normalized growth.
Assay: chemical genetic growth profiling, strain panel (AID 1159580);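 note: tested at 20 µM; growth read once vehicle control cultures reached saturation at 30 °C; 1 = growth at the plate median or of vehicle wells; lower values mean less growth of the strain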
Details: S. cerevisiae deletion strains, growth OD, locus YIR030C, strain dcg1, stronger effect = lower value
About 2,000 (36%) of roughly 5,500 compounds were called active. Roughly 18% stayed inconclusive and do not appear here. The list shows a part of the results.
measure name: normalized growth

* COc1cc2c(cc1OC)[C@@]13CCN4CC5=CCOC6CC(=O)N2C1[C@H]6[C@H]5C[C@H]43 (stereo partly specified) | 0.996
* COc1ccc(C2C(=O)c3ccccc3C2=O)cc1 | 0.987
* CC(=O)OC1CCC2(C)C3CC(=O)C4(C)C(CC5OC6(CCC(C)CO6)[C@@H](C)C54)C3CC[C@H]2C1 (stereo partly specified) | 0.988
* CC1(C)C(=O)[C@@H]2O[C@@H]2[C@@]2(C)C1CC(=O)[C@]1(C)C2CC[C@@]2(C)[C@H](c3ccoc3)OC(=O)[C@H]3O[C@]321 (stereo partly specified) | 0.975
* CCCCc1nc(Cl)c(CO)n1Cc1ccc(-c2ccccc2-c2nn[nH]n2)cc1 | 0.995
* NCCc1c[nH]c2ccccc12 | 0.981
* NC1CC1c1ccccc1 (stereo unspecified) | 0.993
* CCc1cccc2c3c([nH]c12)C(CC)(CC(=O)O)OCC3 (stereo unspecified) | 0.997
* CC(=O)N[C@@H](Cc1c[nH]c2ccccc12)C(=O)O | 1.02
* CNC(Cc1c[nH]c2ccccc12)C(=O)O (stereo unspecified) | 0.997
* COc1cc2c(cc1O)CCNC2C (stereo unspecified) | 0.978

====

Experiment: chemical genetic growth profiling, strain panel (AID 1159580)
Conditions: S. cerevisiae deletion strains, growth OD, locus YNL298W, strain CLA4 (second series), stronger effect = lower value
Among all 5,500 compounds or so, about 2,000 (36%) were called active. Another 18% or so got no clear call; they are omitted. The list shows a part of the results.
# maps each entry to its normalized growth
measure name: normalized growth

* CC(=O)NC(=O)/C(C#N)=C/N1CCN(Cc2ccccc2)CC1 | 0.95
* O=C(Nc1cccnc1)c1cccc(Cl)c1Cl | 0.946
* COC(=O)CSCCc1nc(-c2ccc([N+](=O)[O-])cc2)cs1 | 0.927
* CC(C)S(=O)(=O)c1csc(C(N)=O)c1Cl | 1.04
* COc1cc(/C=C2/N=C(c3ccccc3I)OC2=O)cc(OC)c1OC | 1.01
* CN(C(=O)Nc1ccccc1)n1cnc2ccccc2c1=O | 1
* O=C1c2ccccc2C(=O)C1c1ccccc1 | 0.968
* Cc1ccc(N=Cc2cccs2)cc1Cl | 1.04
* O=c1cc(C(F)(F)F)[nH]c2c(Cl)cccc12 | 0.902
* NS(=O)(=O)c1ccc(-n2ncc3ccccc3c2=O)cc1 | 1.01
* Cc1ccc(-c2nn(-c3ccccc3)c(=O)c3ccccc23)cc1C | 0.936
* CCOC(=O)c1cnc2nc(SC)nn2c1N | 0.968

====

Test: chemical genetic growth profiling, strain panel (AID 1159580)
Details: S. cerevisiae deletion strains, growth OD, locus YLR262C, strain YPT6, stronger effect = lower value
Screen size: about 5,500 compounds; about 2,000 (36%) were called active. Not shown: some 18% with an inconclusive outcome. The list shows a part of the results. *1 amine or outer side, *2 acyl side, *3 side chain or, on linkers, in order; H or OH if unused. Where a SMILES comes first, the peptide text is derived from it. Bridges are numbered along the chain shown (N, C = ends). [ ]: non-standard residue; d: D form. The star is where a group is joined. ξ: configuration not given here. ΔAla(E,3-NHCONH2) = NC(=O)N/C=C(/N)C(=O)O; X2 = NC1=NCCC(C(N[*:1])C(=O)[*:2])N1; ξβ3hOrn = NCCCC(N)CC(=O)*; Dap = NC[CH](N)C(=O)O
measure name: normalized growth

• CC(=O)Oc1cccc2c1C(=O)c1c(OC(C)=O)cc(C(=O)O)cc1C2=O = 1.05
• CC[C@@H](CO)NC(=O)[C@@H]1C=C2c3cccc4[nH]cc(c34)C[C@H]2N(C)C1 = 1.06
• NCCCC(N)CC(=O)NCC1NC(=O)C(CO)NC(=O)C(N)CNC(=O)C(C2CCN=C(N)N2)NC(=O)/C(=C\NC(N)=O)NC1=O (stereo not drawn) (H-[Dap]S[Dap](ξβ3hOrn)[ΔAla(E,3-NHCONH2)][X2]; lactam 1-C; configuration not given here) = 1.04
• CC(=O)Nc1cc2ccccc2oc1=O = 1.04
• Cc1ccc(N=Nc2c(C)[nH]n(C)c2=O)cc1 = 0.352
• Cc1cc(C)cc(N2C(=O)CC(Sc3ccccc3C(=O)O)C2=O)c1 (stereo not given) = 0.12
• CC(=O)Oc1cccc(C(=O)O)c1OC(C)=O = 1.02
• c1ccc([C@H]2CN3CCSC3=N2)cc1 = 0.992
• C1CCC(C(CC2CCCCN2)C2CCCCC2)CC1 (stereo not given) = 0.151
• CC(=O)CC1CCCCN1 (stereo not given) = 1.1

====

Test: chemical genetic growth profiling, strain panel (AID 1159580)
Details: S. cerevisiae deletion strains, growth OD, locus YER155C, strain BEM2, stronger effect = lower value
The whole screen tested about 5,500 compounds, of which about 2,000 (36%) were called active. Roughly 18% stayed inconclusive and do not appear here. The list shows a part of the results.
Reported values of normalized growth for individual entries
measure name: normalized growth

* CC1(C)S[C@@H]2[C@H](NC(=O)Cc3ccccc3)C(=O)N2[C@H]1C(=O)O | 0.999
* Cc1onc(-c2ccccc2)c1C(=O)NC1C(=O)N2[C@@H]1SC(C)(C)[C@@H]2C(=O)O (stereo not given in full) | 1.01
* Cc1onc(-c2c(Cl)cccc2Cl)c1C(=O)N[C@@H]1C(=O)N2[C@@H]1SC(C)(C)[C@@H]2C(=O)O | 1.01
* CC(=O)OCC1=C(C(=O)O)N2C(=O)[C@@H](NC(=O)CCCC(N)C(=O)O)C2SC1 (stereo not given in full) | 1
* Cc1cc(=O)n(-c2ccccc2)n1C | 1

====

Experiment: chemical genetic growth profiling, strain panel (AID 1159580);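 note: tested at 20 µM; growth read once vehicle control cultures reached saturation at 30 °C; 1 = growth at the plate median or of vehicle wells; lower values mean less growth of the strain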
Details: S. cerevisiae deletion strains, growth OD, locus YOL136C, strain PFK27
The campaign covered roughly 5,500 compounds. About 2,000 (36%) were called active. Inconclusive results (about 18%) are left out. Rule as the data show it: active = normalized growth mostly below about 0.91 (no sharp cut-off); inconclusive = no clear call, values can overlap the other calls; inactive = mostly above about 0.92. This is one part of the list.
Classes used: active, inactive

• CC(=O)c1ccccc1C(=O)c1ccc(C(C)(C)C)cc1 = inactive
• O=c1c(-c2ccccc2)c(O)c2cccc3c4c(n1c23)CCCC4 = active
• C/C(=N/NC(=O)c1ccc(C(C)(C)C)cc1)c1ccccc1O = inactive
• Cc1ccc2nc(-c3ccc([N+](=O)[O-])o3)oc(=O)c2c1 = active
• O=C(Nc1cc2c(s1)-c1cc(Cl)ccc1SC2)Oc1ccccc1 = inactive
• CCOC(=O)c1cnc2c(c(C)nn2C)c1Sc1nnc(SC)s1 = inactive
• CC(C)(C)C(=O)c1sc2sc(C(=O)C(C)(C)C)c(N)c2c1N = active
• CS/C(Nc1cccc(C(F)(F)F)c1)=C(/C#N)S(=O)(=O)c1ccc(Cl)cc1 = inactive
• Clc1ccc(N/N=C\c2sccc2Oc2ccccc2)cc1 = active
• OC(CSc1ccccc1)CN1CCN(c2nc(-c3ccccc3)ns2)CC1 (configuration not stated) = inactive
• O=C(NNC(=S)Nc1ccc(Cl)cc1)c1ncc(C(F)(F)F)cc1Cl = inactive
• N#C/C(=N/Nc1cccc(C(F)(F)F)c1)C(=O)c1csc(-c2cccnc2)n1 = active

====

Assay: chemical genetic growth profiling, strain panel (AID 1159580);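 note: tested at 20 µM; growth read once vehicle control cultures reached saturation at 30 °C; 1 = growth at the plate median or of vehicle wells; lower values mean less growth of the strain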
Settings: S. cerevisiae deletion strains, growth OD, locus YMR307W, strain GAS1, stronger effect = lower value
About 2,000 (36%) of roughly 5,500 compounds were called active. About 18% were inconclusive and are not listed. Some of the results follow.
measure name: normalized growth

• C#C[C@]1(O)CC[C@H]2[C@@H]3CCC4=Cc5oncc5CC4(C)[C@H]3CCC21C (stereo partly drawn) = 0.988 (inactive)
• C#CC1(O)CCC2C3CCC4=CC(=O)CCC4(C)C3CCC21C (stereo not drawn) = 1.14 (inactive)
• C[C@]12CCC(=O)C=C1CCC1C2[C@@H](O)C[C@@]2(C)C1CC[C@]2(O)C(=O)COC(=O)CCC(=O)O (stereo partly drawn) = 1.04 (inactive)

====

Assay: chemical genetic growth profiling, strain panel (AID 1159580);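 note: tested at 20 µM; growth read once vehicle control cultures reached saturation at 30 °C; 1 = growth at the plate median or of vehicle wells; lower values mean less growth of the strain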
Settings: S. cerevisiae deletion strains, growth OD, locus YGR135W, strain pre9, stronger effect = lower value
Out of some 5,500 compounds screened, about 2,000 (36%) were called active. Inconclusive results (about 18%) are left out. The list shows a part of the results.
measure name: normalized growth

- CCOc1ccc(C(=O)c2cc(O)c(OC)c(OC)c2O)cc1: 1.01
- CCOc1ccc(C(=O)c2ccc(O)c(O)c2O)cc1: 0.85
- COc1c2ccoc2cc2oc(C)cc(=O)c12: 0.914
- C=C(C)[C@@H]1CC[C@]2(CO)CC[C@]3(C)[C@H](CCC4[C@@]5(C)CC[C@H](O)C(C)(C)C5CC[C@]43C)C12 (stereo partly specified): 1.01
- CCOc1ccc(NC(C)=O)cc1: 1
- Cc1cc(C(C)(C)C)c(O)c(C)c1CC1=NCCN1: 1.01
- Cc1cc(C(C)(C)C)cc(C)c1CC1=NCCN1: 1
- COc1ccc2c(=O)ccoc2c1: 0.978
- COC(=O)C[C@H]1C(C)(C)[C@@H](O)[C@@H]2CC3=C4C=C(OC)O[C@@H](c5ccoc5)[C@]4(C)CCC3[C@@]1(C)C2=O (stereo partly specified): 0.976
- Cc1ccc(N(CC2=NCCN2)c2cccc(O)c2)cc1: 0.976
- CC[C@H]1CN2CCc3cc(OC)c(OC)cc3C2C[C@@H]1CC1NCCc2cc(OC)c(OC)cc21 (stereo partly specified): 1.01
